Test: Physicochemical properties (Log P, pKa, solubility vs. pH) for PBPK model
Settings: (B), first
Counter-ions that a name gives are not always drawn.
valueType: pKa

## Input I have this molecule here, CCNCCc1ccc(CN(CC)c2cc(OC)ccc2[C@@H]2CCc3cc(O)ccc3C2)cc1 [Elacestrant Dihydrochloride] , and I need its recorded pKa.
## Output 6.39

====

Test: Human effective jejunal permeability
Conditions: Caco-2, scaled from in vitro Caco2 data, read-out: Human effective jejunal permeability, initial value
Where a name gives a salt, the structure may show the parent alone.
valueType: Papp (×10⁻⁶ cm/s)
// note: answer is a bare numeric in ×10⁻⁶ cm/s

## Input I have this compound here, CCNCCc1ccc(CN(CC)c2cc(OC)ccc2[C@@H]2CCc3cc(O)ccc3C2)cc1 [Elacestrant Dihydrochloride] , and I need its recorded Papp.
## Output 32
